From: paper PMC5943959

STUDY_SYSTEM: hCA I (Homo sapiens)
Construct: made in house
Sequence (P00915 whole entry): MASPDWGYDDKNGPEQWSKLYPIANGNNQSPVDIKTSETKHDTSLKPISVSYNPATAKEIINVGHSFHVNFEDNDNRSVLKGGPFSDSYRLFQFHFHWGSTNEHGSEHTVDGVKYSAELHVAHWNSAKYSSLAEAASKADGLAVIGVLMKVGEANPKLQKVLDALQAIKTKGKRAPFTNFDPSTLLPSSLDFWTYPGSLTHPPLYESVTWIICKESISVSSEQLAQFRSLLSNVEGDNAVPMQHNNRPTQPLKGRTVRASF
TEST_PROTOCOL: stopped-flow CO2 hydrase assay, hCA I
Type: biochemical
RECORDED_CONDITIONS: recombinant enzyme; errors ± 5–10%, 3 assays; read-out: Ki hCA I
pKi: −log10 of the molar value.
Recorded measurements of pKi, one per entry

SMILES_CODE | STUDY_SYSTEM | CENSORING_QUALIFIER | pKi
O=C(O)c1ccc(Sc2nnnn2-c2ccccc2)c([N+](=O)[O-])c1 | hCA I (Homo sapiens) | < | 4.30
O=C(O)c1ccc(NCc2cccnc2)c([N+](=O)[O-])c1 | hCA I (Homo sapiens) | < | 4.30
O=C(O)c1ccc(Sc2ccccn2)c([N+](=O)[O-])c1 | hCA I (Homo sapiens) | = | 5.18
O=C(O)c1ccc(Sc2nnc(-c3cccc(Br)c3)o2)c([N+](=O)[O-])c1 | hCA I (Homo sapiens) | = | 6.15
O=C(Cc1ccccc1)Nc1ccc(C(=O)O)cc1 | hCA I (Homo sapiens) | = | 5.56
O=C(O)c1ccc(N2CCc3ccccc32)c([N+](=O)[O-])c1 | hCA I (Homo sapiens) | < | 4.30
